test: Cytotoxicity evaluation in GS4.1 cells (Cell Titer 96 AQueous One Solution Cell Proliferation Assay)
Format: cell-based
stated.conditions: human, cellular viability, treated as in replicon assay, read-out: HCV Replicon CC50
Listing: CC50 at 72 h of selected molecules

Completed entries (count: 3):
| molecule | CC50 at 72 h |
| --- | --- |
| CCOC(=O)[C@@H](NP(=O)(N[C@H](C(=O)OCC)C(C)C)OC[C@H]1O[C@@H](n2cnc3c(N4CCCC4)nc(N)nc32)C(C)(O)C1O)C(C)C (some centres unmarked) | > 75 µM |
| CCOC(=O)[C@H](CC(C)C)NP(=O)(N[C@@H](CC(C)C)C(=O)OCC)OC[C@H]1O[C@@H](n2cnc3c(NC4CCCC4)nc(N)nc32)C(C)(O)C1O (some centres unmarked) | ≤ 75 µM |
| CCOC(=O)[C@H](CC(C)C)NP(=O)(N[C@@H](CC(C)C)C(=O)OCC)OC[C@H]1O[C@@H](n2cnc3c(OC)nc(N)nc32)C(C)(O)C1O (some centres unmarked) | > 75 µM |

Which CC50 at 72 h reading was recorded for the molecule COc1nc(N)nc2c1ncn2[C@@H]1O[C@H](COP(=O)(NC(Cc2ccccc2)C(=O)OC(C)C)NC(Cc2ccccc2)C(=O)OC(C)C)C(O)C1(C)O (some centres unmarked) ?
≤ 75 µM

Which CC50 at 72 h reading was recorded for the molecule CCOC(=O)[C@H](CC(C)C)NP(=O)(N[C@@H](CC(C)C)C(=O)OCC)OC[C@H]1O[C@@H](n2cnc3c(N4CCOCC4)nc(N)nc32)C(C)(O)C1O (some centres unmarked) ?
> 75 µM

Which CC50 at 72 h reading was recorded for the molecule CCOC(=O)C(Cc1ccccc1)NP(=O)(NC(Cc1ccccc1)C(=O)OCC)OC[C@H]1O[C@@H](n2cnc3c(OC)nc(N)nc32)C(C)(O)C1O (stereo in doubt) ?
≤ 75 µM

Which CC50 at 72 h reading was recorded for the molecule CCCOC(=O)[C@H](CC(C)C)NP(=O)(N[C@@H](CC(C)C)C(=O)OCCC)OC[C@H]1O[C@@H](n2cnc3c(OC)nc(N)nc32)[C@@](C)(O)C1O (some centres unmarked) ?
≤ 75 µM

Which CC50 at 72 h reading was recorded for the molecule COC(=O)C(CC(C)C)NP(=O)(NC(CC(C)C)C(=O)OC)OC[C@H]1O[C@@H](n2cnc3c(OC)nc(N)nc32)[C@@]2(C)OC(=O)OC12 (some centres unmarked) ?
> 75 µM

Which CC50 at 72 h reading was recorded for the molecule CCOC(=O)[C@H](CC(C)C)NP(=O)(N[C@@H](CC(C)C)C(=O)OCC)OC[C@H]1O[C@@H](n2cnc3c(=O)[nH]c(N)nc32)C(C)(O)C1O (some centres unmarked) ?
> 75 µM

Which CC50 at 72 h reading was recorded for the molecule CCOC(=O)[C@H](CC(C)C)NP(=O)(N[C@@H](CC(C)C)C(=O)OCC)OC[C@H]1O[C@@H](n2ccc(=O)[nH]c2=O)C(C)(O)C1O (some centres unmarked) ?
> 75 µM

Which CC50 at 72 h reading was recorded for the molecule CCOC(=O)[C@H](CC)NP(=O)(N[C@H](CC)C(=O)OCC)OC[C@H]1O[C@@H](n2cnc3c(OC)nc(N)nc32)C(C)(O)C1O (some centres unmarked) ?
> 75 µM

###

System: Huh-7 cells containing HCV Coni subgenomic replicon (GS4.1 cells)
test: HCV replicon assay
Type: cell-based
stated.conditions: GS4.1 cells, 72 hours incubation, NS4A expression by ELISA; read-out: HCV Replicon EC50
observed.property: EC50

| compound | EC50 |
| --- | --- |
| CCOC(=O)[C@@H](CC(C)C)NP(=O)(N[C@H](CC(C)C)C(=O)OCC)OC[C@H]1O[C@@H](n2cnc3c(OC)nc(N)nc32)C(C)(O)C1O (some centres unmarked) [Compound 61] | 1 to 10 µM |

For the next question, use this compound.
Which EC50 reading was recorded for the compound CCOC(=O)[C@@H](CC(C)C)NP(=O)(N[C@H](CC(C)C)C(=O)OCC)OC[C@H]1O[C@@H](n2cnc3c(OC)nc(N)nc32)C(C)(O)C1O (some centres unmarked) [Compound 66] ?
0.1 to 1 µM

###

Listing: CC50 at 72 h of selected compounds
test: Cytotoxicity evaluation in GS4.1 cells (Cell Titer 96 AQueous One Solution Cell Proliferation Assay)
Type: cell-based
stated.conditions: human, cellular viability, treated as in replicon assay, read-out: HCV Replicon CC50

Completed entries (count: 5):
| compound | CC50 at 72 h |
| --- | --- |
| CCOC(=O)[C@H](CC(C)C)NP(=O)(N[C@H](CC(C)C)C(=O)OCC)OC[C@H]1O[C@@H](n2cnc3c(OC(C)C)nc(N)nc32)C(C)(O)C1O (stereo partly drawn) | > 75 µM |
| COC(=O)C(CC(C)C)NP(=O)(NC(CC(C)C)C(=O)OC)OC[C@H]1O[C@@H](n2cnc3c(NC4CC4)nc(N)nc32)C(C)(O)C1O (stereo partly drawn) | > 75 µM |
| COc1nc(N)nc2c1ncn2[C@@H]1O[C@H](COP(N)(=O)OCCSC(=O)C(C)(C)CO)C(O)C1(C)O (stereo partly drawn) | > 75 µM |
| CCCOc1nc(N)nc2c1ncn2[C@@H]1O[C@H](COP(=O)(N[C@@H](CC(C)C)C(=O)OCC)N[C@@H](CC(C)C)C(=O)OCC)C(O)C1(C)O (stereo partly drawn) | ≤ 75 µM |
| CCOC(=O)[C@H](CC(C)C)NP(=O)(N[C@@H](CC(C)C)C(=O)OCC)OC[C@H]1O[C@@H](n2ccc(OC)nc2=O)[C@](C)(O)[C@@H]1O | > 75 µM |

For the next question, use this compound.
Which CC50 at 72 h reading was recorded for the compound COC(=O)C(CC(C)C)NP(=O)(NC(CC(C)C)C(=O)OC)OC[C@H]1O[C@@H](n2cnc3c(OC)nc(N)nc32)[C@@](C)(O)C1O (stereo in doubt) ?
> 75 µM
